These measurements were taken from ChEMBL document CHEMBL1149797.

# EXPERIMENT_SUMMARY: Half life in Sprague-Dawley rat at 10 mg/kg, iv
# Assay type: ADME, organism-based
# Parameters: dose 10 mg/kg, route intravenous
# ASSAY_CONTEXT: in vivo
MEASURED_ENDPOINT: half-life (min)
# number only, unit min dropped from output

Data request: Consider the compound `CC(=O)NC[C@H]1CN(c2ccc([N+]3([O-])CCN(C(=O)/C=C/c4ccc([N+](=O)[O-])o4)CC3)c(F)c2)C(=O)O1` . State its measured half-life.
Data returned: 57

====

# maps each entry to its MIC
# Tested on: Enterococcus faecium
# EXPERIMENT_SUMMARY: Antibacterial activity against vancomycin-resistant Enterococcus faecium ATCC 700221 by broth microdilution technique
# Format: functional
# do not omit the unit; it follows the number

- LINE_NOTATION: "CC(=O)NC[C@H]1CN(c2ccc(N3CCN(C(=O)/C=C/c4ccc([N+](=O)[O-])s4)CC3)c(F)c2)C(=O)O1"
  MIC: "0.5 µg/mL"
- LINE_NOTATION: "CC(=O)NC[C@H]1CN(c2ccc(N3CCOCC3)c(F)c2)C(=O)O1"
  MIC: "1 µg/mL"

Data request: Give me measured MIC, please, for this compound: `CC(=O)NC[C@H]1CN(c2ccc(N3CCN(C(=O)CO)CC3)c(F)c2)C(=O)O1`
Data returned: 1 µg/mL

Data request: Determine its reported MIC: `CC(=O)NC[C@H]1CN(c2ccc([N+]3([O-])CCN(C(=O)/C=C/c4ccc([N+](=O)[O-])o4)CC3)c(F)c2)C(=O)O1`
Data returned: 0.5 µg/mL

Data request: Fill in MIC for record `CC(=O)NC[C@H]1CN(c2ccc(N3CCN(C(=O)/C=C/c4ccc([N+](=O)[O-])o4)CC3)c(F)c2)C(=O)O1`
Data returned: 0.12 µg/mL

====

# System: Streptococcus pneumoniae
# EXPERIMENT_SUMMARY: Antibacterial activity against multidrug-resistant Streptococcus pneumoniae ATCC 700904 by broth microdilution technique
# Format: functional
MEASURED_ENDPOINT: MIC (µg/mL)
The response must be a number in µg/mL with no trailing unit.

Previously resolved entries follow.
- LINE_NOTATION: "CC(=O)NC[C@H]1CN(c2ccc([N+]3([O-])CCN(C(=O)/C=C/c4ccc([N+](=O)[O-])o4)CC3)c(F)c2)C(=O)O1"
  UNIT_TAG: "µg/mL"
  ASSAY_RESULT: 0.25
- LINE_NOTATION: "CC(=O)NC[C@H]1CN(c2ccc(N3CCOCC3)c(F)c2)C(=O)O1"
  UNIT_TAG: "µg/mL"
  ASSAY_RESULT: 0.25
- LINE_NOTATION: "CC(=O)NC[C@H]1CN(c2ccc(N3CCN(C(=O)/C=C/c4ccc([N+](=O)[O-])o4)CC3)c(F)c2)C(=O)O1"
  UNIT_TAG: "µg/mL"
  ASSAY_RESULT: 0.25

Data request: Output reported MIC of the molecule `CC(=O)NC[C@H]1CN(c2ccc(N3CCN(C(=O)CO)CC3)c(F)c2)C(=O)O1` on Streptococcus pneumoniae.
Data returned: 0.5

====

# EXPERIMENT_SUMMARY: AUC in Sprague-Dawley rat at 10 mg/kg, iv
# Format: ADME, organism-based
# Design: dose 10 mg/kg, route intravenous
# ASSAY_CONTEXT: plasma
MEASURED_ENDPOINT: AUC (ng·h/mL)
All answers are understood in ng·h/mL, so give the number only.

Data request: Look up and report measured AUC for this entry: `CC(=O)NC[C@H]1CN(c2ccc([N+]3([O-])CCN(C(=O)/C=C/c4ccc([N+](=O)[O-])o4)CC3)c(F)c2)C(=O)O1`
Data returned: 1030
